Let's look at some compounds and their measured inhibition.
test.system: Adenosine receptor A1 (Homo sapiens)
test.protocol: Displacement of [3H]DPCPX from human cloned adenosine receptor A1 expressed in CHO-K1 cell membranes at 1 uM incubated for 60 mins by microbeta counting method relative to control
The reply should be a number in %, with the unit left off.

[
  {
    "smiles.entry": "CCCOc1ccc(/C=N/Nc2nc(N)c3ncn([C@@H]4O[C@H](CO)[C@@H](O)[C@H]4O)c3n2)cc1",
    "readout.units": "%",
    "inhibition": 7
  },
  {
    "smiles.entry": "CCN(CC)c1ccc(/C=N/Nc2nc(N)c3ncn([C@@H]4O[C@H](CO)[C@@H](O)[C@H]4O)c3n2)cc1",
    "readout.units": "%",
    "inhibition": 0
  }
]

Let's switch to this compound now.
Nc1nc(N/N=C/c2ccc(Cl)c(C(F)(F)F)c2)nc2c1ncn2[C@@H]1O[C@H](CO)[C@@H](O)[C@H]1O has a reported inhibition of 11
